Tested on: Neisseria meningitidis
Assay Summary: Antibacterial activity against Beta-lactamase-negative Neisseria meningitidis assessed as percent resistant isolates by Etest method
Format: functional
Threshold rule: Activity greater than or equal to 50% is label 1; below that, label 0.

- Structure: "CN(C)[C@@H]1C(O)=C(C(N)=O)C(=O)[C@@]2(O)C(O)=C3C(=O)c4c(O)cccc4[C@@](C)(O)[C@H]3C[C@@H]12"
  Classification: "label 1"
- Structure: "Nc1ccc(S(=O)(=O)Nc2ncccn2)cc1"
  Classification: "label 1"
- Structure: "CC1(C)S[C@@H]2[C@H](NC(=O)Cc3ccccc3)C(=O)N2[C@H]1C(=O)O"
  Classification: "label 0"
- Structure: "CO[C@H]1/C=C/O[C@@]2(C)Oc3c(C)c(O)c4c(O)c(c(/C=N/N5CCN(C)CC5)c(O)c4c3C2=O)NC(=O)/C(C)=C\\C=C\\[C@H](C)[C@H](O)[C@@H](C)[C@@H](O)[C@@H](C)[C@H](OC(C)=O)[C@@H]1C"
  Classification: "label 0"

Has CC1(C)S[C@@H]2[C@H](NC(=O)[C@H](N)c3ccccc3)C(=O)N2[C@H]1C(=O)O a recorded Activity greater than or equal to 50%?
label 0

Has CC[C@H]1OC(=O)[C@H](C)[C@@H](O[C@H]2C[C@@](C)(OC)[C@@H](O)[C@H](C)O2)[C@H](C)[C@@H](O[C@@H]2O[C@H](C)C[C@H](N(C)C)[C@H]2O)[C@](C)(O)C[C@@H](C)C(=O)[C@H](C)[C@@H](O)[C@]1(C)O a recorded Activity greater than or equal to 50%?
label 1

Has CC1(C)S[C@@H]2[C@H](NC(=O)COc3ccccc3)C(=O)N2[C@H]1C(=O)O a recorded Activity greater than or equal to 50%?
label 0

Has CO/N=C(\C(=O)N[C@@H]1C(=O)N2C(C(=O)O)=C(COC(N)=O)CS[C@H]12)c1ccco1 a recorded Activity greater than or equal to 50%?
label 0

====

Tested on: Neisseria meningitidis
Assay Summary: Antibacterial activity against Beta-lactamase-negative Neisseria meningitidis by Etest method
Format: functional
Measured MIC90, listed per entry.

In the examples that follow, each entry is paired with its recorded MIC90.
- Structure: "CN(C)[C@@H]1C(O)=C(C(N)=O)C(=O)[C@@]2(O)C(O)=C3C(=O)c4c(O)cccc4[C@@](C)(O)[C@H]3C[C@@H]12"
  Attribute Measured: "MIC90"
  Result: "4 µg/mL"
- Structure: "O=C(N[C@H](CO)[C@H](O)c1ccc([N+](=O)[O-])cc1)C(Cl)Cl"
  Attribute Measured: "MIC90"
  Result: "1 µg/mL"
- Structure: "CO/N=C(\\C(=O)N[C@@H]1C(=O)N2C(C(=O)O)=C(COC(N)=O)CS[C@H]12)c1ccco1"
  Attribute Measured: "MIC90"
  Result: "0.094 µg/mL"
- Structure: "CC1(C)S[C@@H]2[C@H](NC(=O)[C@H](N)c3ccccc3)C(=O)N2[C@H]1C(=O)O"
  Attribute Measured: "MIC90"
  Result: "0.094 µg/mL"
- Structure: "Nc1ccc(S(=O)(=O)Nc2ncccn2)cc1"
  Attribute Measured: "MIC90"
  Result: "> 256 µg/mL"
- Structure: "O=C(O)c1cn(C2CC2)c2cc(N3CCNCC3)c(F)cc2c1=O"
  Attribute Measured: "MIC90"
  Result: "0.004 µg/mL"
- Structure: "CC[C@H]1OC(=O)[C@H](C)[C@@H](O[C@H]2C[C@@](C)(OC)[C@@H](O)[C@H](C)O2)[C@H](C)[C@@H](O[C@@H]2O[C@H](C)C[C@H](N(C)C)[C@H]2O)[C@](C)(O)C[C@@H](C)C(=O)[C@H](C)[C@@H](O)[C@]1(C)O"
  Attribute Measured: "MIC90"
  Result: "1 µg/mL"
- Structure: "CC1(C)S[C@@H]2[C@H](NC(=O)Cc3ccccc3)C(=O)N2[C@H]1C(=O)O"
  Attribute Measured: "MIC90"
  Result: "0.094 µg/mL"
- Structure: "CO/N=C(\\C(=O)N[C@@H]1C(=O)N2C(C(=O)O)=C(CSc3nc(=O)c(O)nn3C)CS[C@H]12)c1csc(N)n1"
  Attribute Measured: "MIC90"
  Result: "< 0.002 µg/mL"
- Structure: "CO[C@H]1/C=C/O[C@@]2(C)Oc3c(C)c(O)c4c(O)c(c(/C=N/N5CCN(C)CC5)c(O)c4c3C2=O)NC(=O)/C(C)=C\\C=C\\[C@H](C)[C@H](O)[C@@H](C)[C@@H](O)[C@@H](C)[C@H](OC(C)=O)[C@@H]1C"
  Attribute Measured: "MIC90"
  Result: "0.125 µg/mL"

Then there is this compound:
# query: MIC90 | item CC1(C)S[C@@H]2[C@H](NC(=O)COc3ccccc3)C(=O)N2[C@H]1C(=O)O | system: Neisseria meningitidis
0.38 µg/mL
